# TEST SYSTEM: Serine/threonine-protein kinase 33 (Homo sapiens) (UniProt Q9BYT3)
# Sequence (Q9BYT3 whole entry, looked up): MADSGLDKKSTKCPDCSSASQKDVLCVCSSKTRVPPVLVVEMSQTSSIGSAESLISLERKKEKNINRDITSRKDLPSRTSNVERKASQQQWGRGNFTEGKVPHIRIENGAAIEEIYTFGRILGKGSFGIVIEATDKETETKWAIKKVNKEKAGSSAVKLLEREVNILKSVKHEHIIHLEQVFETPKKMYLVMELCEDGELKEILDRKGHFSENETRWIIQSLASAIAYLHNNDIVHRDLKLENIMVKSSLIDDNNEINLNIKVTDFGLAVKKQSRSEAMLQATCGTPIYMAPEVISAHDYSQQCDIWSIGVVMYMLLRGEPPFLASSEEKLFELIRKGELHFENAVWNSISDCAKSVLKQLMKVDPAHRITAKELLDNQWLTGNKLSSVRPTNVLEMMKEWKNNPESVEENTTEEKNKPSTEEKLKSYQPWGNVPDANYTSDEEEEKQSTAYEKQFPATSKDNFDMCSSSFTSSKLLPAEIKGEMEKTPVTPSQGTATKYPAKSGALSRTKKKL
# ASSAY COMMENT: STK33 kinase inhibitors, potency, dose response, biochemical, ADP-Glo luminescence, dry powder, set 2 (AID 588480)
# ASSAY CONDITIONS: purified STK33, MBP phosphorylation
Records with an inconclusive call do not appear.
READOUT KIND: AC50

COc1ccccc1N=C1NC(=O)/C(=C/c2ccc(O)cc2)S1 = 911 nM
COc1ccc(C(=O)Nc2ccccc2-c2nc3ccccc3[nH]c2=O)cc1 = 977 nM
O=C(Nc1ccccc1-c1nc2ccccc2[nH]c1=O)c1cccc(F)c1 = 2430 nM

QUERY: Provide AC50 value for the following molecule: `O=C(Nc1ccccc1-c1nc2ccccc2[nH]c1=O)c1ccccn1`
RESULT: 76 nM

* * *

Entries and their AC50 values follow.
# TEST SYSTEM: Serine/threonine-protein kinase 33 (Homo sapiens) (UniProt Q9BYT3)
# ASSAY COMMENT: STK33 kinase inhibitors, potency, dose response, biochemical, ADP-Glo luminescence, dry powder, set 2 (AID 588480)
# ASSAY CONDITIONS: purified STK33, MBP phosphorylation
Records with an inconclusive call do not appear.

Please review the entries below; each comes with its answer.
O=C(Nc1ccccc1-c1nc2ccccc2[nH]c1=O)c1cccc(Cl)c1 = 0.709 µM
O=C(Nc1ccccc1-c1nc2ccccc2[nH]c1=O)c1cccnc1 = 0.582 µM
O=C1NC(=NCc2ccccc2)S/C1=C/c1ccc(O)cc1 = 0.245 µM

QUERY: Specify the recorded AC50 for `O=C(Nc1ccccc1-c1nc2ccccc2[nH]c1=O)c1ccc(F)cc1` , system: Serine/threonine-protein kinase 33 (Homo sapiens) (UniProt Q9BYT3).
RESULT: 0.152 µM

QUERY: Specify the recorded AC50 for `COc1cc(/C=C2\SC(N)=NC2=O)ccc1O` , system: Serine/threonine-protein kinase 33 (Homo sapiens) (UniProt Q9BYT3).
RESULT: 0.466 µM

QUERY: Specify the recorded AC50 for `COc1ccccc1N=C1NC(=O)/C(=C/c2ccc3c(c2)OCO3)S1` , system: Serine/threonine-protein kinase 33 (Homo sapiens) (UniProt Q9BYT3).
RESULT: 5.41 µM

QUERY: Specify the recorded AC50 for `O=C(Nc1ccccc1-c1nc2ccccc2[nH]c1=O)c1cc2ccccc2s1` , system: Serine/threonine-protein kinase 33 (Homo sapiens) (UniProt Q9BYT3).
RESULT: 8.51 µM
